# experimental.protocol: yeast display, Sf9 membrane polyspecificity reagent, FACS + sequencing; frameworks hold sequencing errors
readout: polyreactivity (PSR sort gate)

construct.sequence: QVQLVESGGGLVQAGGSLRLSCAASGSTFDIYAMGWYRQAPGKERELVAAISNSGDTYYADSVKGRFTISRDNAKNTVYLQMNSLKPEDTAVYYCNADFHDWFDYWGQGTQVTVSS
readout: polyreactivity (PSR sort gate)
measurement: high polyreactivity

construct.sequence: QVQLVESGGGLVQAGGSLRLSCAASGSTILAYALGWYRPAPGKERELVAAIRRGGTSTYSADSLKGRFTISRDKAKKTVYLQINSLQPEDTAVYYCNKAYITKRGVSGSNDYWGQGTQVTVSS
readout: polyreactivity (PSR sort gate)
measurement: low polyreactivity

construct.sequence: QVQLVESGGGLVQAGGSLRLSCAASGFIFTGYTMGWYRQAPGKERELVARISSGDSTKYADSVKGRFTISRDNAKNNVYLQMNSLKPEDTAVYYCAAYIRNARNGTTYDYWGQGTQVTVSS
readout: polyreactivity (PSR sort gate)
measurement: high polyreactivity

construct.sequence: QVQLVESGGGLVQAGGSRLSCAASGLIFIWYTMGWYRQAPGKERELVAAIDSSGGNTYYADSVKGRFTISRDNAKNTVYLQMNSLKPEDTAVYYCAKDVGHGAGNLMGYWGQGTQVTVSS
readout: polyreactivity (PSR sort gate)
measurement: low polyreactivity

construct.sequence: QDQLVESGGGLVQAGGSLRLSCAASGSTFRRYDMGWYRQAPGKERELVAAISHRTGRTSYADSVKGRFTISRDNAKNTVYLQMNSLKTEDTAVYYCAADHTYYRQGYDYWGQGTQVTVSS
readout: polyreactivity (PSR sort gate)
measurement: high polyreactivity

====

# experimental.protocol: yeast display, Sf9 membrane polyspecificity reagent, FACS + sequencing; frameworks hold sequencing errors
readout: polyreactivity (PSR sort gate)

construct.sequence: QVQLVESGGGLVQAGGSLRLSCAASGRIFKWNAMGWYRQAPGKERELVAAIRWSGTSTYADSVKGRFTISRDNAKNTVYLQMNSLKPEDTAVYYCAASKRYTVGVRAFGKHDYWGQGTQVTVSS
measurement: low polyreactivity

construct.sequence: QVQLVESGGGLVQAGGSLRLICDASGSTFAYNDMGWYRQAPGKERELVAAITYSGGSTYYADSVKGRFTISRDNAKNTVSLQMNSLKPEDTAVYYCNAYTGYPYEYWGQGTQVTVSS
measurement: low polyreactivity

====

# experimental.protocol: yeast display, Sf9 membrane polyspecificity reagent, FACS + sequencing; frameworks hold sequencing errors

construct.sequence: QVQLVESGGGLVQAGGSLRLSCAASGSIFRWYAMGWYRKAPGKERELVARITVSGGSTYYADSVKGRFTISRDNAKNTVYLEMNSLKPEDTAVYYCNARAHYTPDGGGDYWGQGTQVTVSS
polyreactivity (PSR sort gate): high polyreactivity

construct.sequence: QVQLVESGGGLVQAGGSLRLSCAASGSTFYENAMVWSRQAPGKDRELVAAISRSTGRTYYADSVKGRFTISRDNAKNTVYLQMNSLKPEDTAVYYCAARVYGRMYFWGQGTQVTVSS
polyreactivity (PSR sort gate): high polyreactivity

====

# experimental.protocol: yeast display, Sf9 membrane polyspecificity reagent, FACS + sequencing; frameworks hold sequencing errors

construct.sequence: QVQLGESGGGLVQAGGSLRLSCAASGRNFENNAMGWYRQAPGKERELVASIRGGGSTNYADSVKGRFTISRDNAKNTVYVQMNSLKPEDTAVYYCNADYWWSYVRFDYWGQGTQVTVSS
polyreactivity (PSR sort gate): low polyreactivity

construct.sequence: QVQLVESGGGLVQAGGSLRLSCAASGRTFYWNAMGWYRQAPGKERELVAAIRWRGGNTYYADSVKGRFTISRDNAKNTVYLQMNSLKPEDTAVYYCAAAGGKSEMGYWGQGTQVTVSS
polyreactivity (PSR sort gate): high polyreactivity

construct.sequence: QVQVVESGGGLVQAGGSLRLSCAASGSTFEYNAMGWYRQAPGKERELVASSTNYADSVKGRFTISRDNATNTVYLKMNSLKPEDTAVYYCAREQGVNRNHDYWGQGTQVTVSS
polyreactivity (PSR sort gate): low polyreactivity

construct.sequence: QVQLVESGGGLVQAGGSLRLSCAASGRTFGIYAMGWYRQAPGKERELVASISWSGGRTYYADSVKGRFTISRDNAKNTVYLQMNSLKPEDTAVYYCAAYGVYYPRSWQYFDWYGYWGQGTQVTVSS
polyreactivity (PSR sort gate): high polyreactivity

construct.sequence: QVQLVESGGGLVQAGGSLRLSCAASGFIFIRYAMGWYRQAPGKERELVAAINGGGSSTYYADSVKGRFTISRDNAKNTVYLQMNSLKPEDTAVYYCAADTDSWWYYLYYGDGFDYWGQGTQVTVSS
polyreactivity (PSR sort gate): high polyreactivity

Measured values drawn from the nanobody polyreactivity screen of Harvey et al. (2022) for this set.
